Numbers sourced from ChEMBL document CHEMBL1201862.

- Tested System: Heat shock protein HSP 90-alpha (Homo sapiens, UniProt P07900)
- Format: functional, organism-based
Calls of active or inactive are those of the source.
Experimental Endpoint: AC50

INSERT INTO results (smiles_input, experimental_endpoint, result) VALUES
  ('COc1cccc(/C=C/c2ccc3cccc(O)c3n2)c1', 'AC50', '24.4 µM (active)'),
  ('O=C1Nc2ccc(Br)cc2/C1=C/C(=O)c1ccc2c(c1)OCO2', 'AC50', '2.17 µM (active)'),
  ('CCN1C(=O)/C(=C\C(=O)c2cccs2)c2cc(Br)ccc21', 'AC50', '3.66 µM (active)'),
  ('O=C(CCSc1ccc(Br)cc1)c1ccc(O)cc1', 'AC50', '1.81 µM (active)');

###

- Tested System: Small ubiquitin-related modifier 1 (Homo sapiens)
- Sequence (P63165 whole entry): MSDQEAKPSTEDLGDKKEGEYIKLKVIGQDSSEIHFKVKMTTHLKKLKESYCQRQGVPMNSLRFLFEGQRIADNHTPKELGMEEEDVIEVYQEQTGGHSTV
- Test Details: inhibitors of SUMO1 peptide binding, dose response, biochemical, fluorescence polarization, uHTS hits (AID 624382)
- Type: functional
- Setup Conditions: read-out: IC50_Mean
The source made the active and inactive calls.
Labels: active, inactive

INSERT INTO measurements (compound, label_class) VALUES
  ('O=C(O)CP(=O)(c1ccccc1)c1ccccc1', 'inactive'),
  ('Cc1ccccc1C1=C/C(=C(\SS/C(C(=O)c2ccc(OCC(=O)O)c(Cl)c2Cl)=C2\C=C(c3ccccc3C)SS2)C(=O)c2ccc(OCC(=O)O)c(Cl)c2Cl)SS1', 'active'),
  ('CC1(C)C2CC[C@]3(C)[C@H](C(=O)C=C4[C@@H]5C[C@@](C)(C(=O)O)CC[C@]5(C)CC[C@]43C)[C@@]2(C)CC[C@@H]1O[C@H]1O[C@H](C(=O)O)[C@@H](O)[C@H](O)[C@H]1O[C@@H]1O[C@H](C(=O)O)[C@@H](O)[C@H](O)[C@H]1O (stereo partly drawn)', 'inactive'),
  ('CCOC(=O)C(=O)Cc1cccnn1', 'inactive'),
  ('CN1C(=O)/C(=C/c2ccc(-c3ccccc3[N+](=O)[O-])o2)S/C1=N\c1ccc(Cl)c(C(=O)O)c1', 'inactive'),
  ('C=C(C)C(=O)Nc1cccc(C2=NOC3(C2)C[C@H](C(N)=O)N(C(=O)/C=C/C)C3)c1 (stereo partly drawn)', 'inactive'),
  ('NC(=O)c1ccsc1NC(=O)c1cc(=O)c2ccccc2o1', 'inactive'),
  ('CCC(CO)Oc1cc(NC(=O)c2cccc(OC)c2)c2ncn(C(C)C)c2c1 (stereo not drawn)', 'inactive');

###

Some compounds, each annotated with its measured AC50.
- Tested System: Paired box protein Pax-8 (Homo sapiens, UniProt Q06710)
- Sequence (Q06710 whole entry): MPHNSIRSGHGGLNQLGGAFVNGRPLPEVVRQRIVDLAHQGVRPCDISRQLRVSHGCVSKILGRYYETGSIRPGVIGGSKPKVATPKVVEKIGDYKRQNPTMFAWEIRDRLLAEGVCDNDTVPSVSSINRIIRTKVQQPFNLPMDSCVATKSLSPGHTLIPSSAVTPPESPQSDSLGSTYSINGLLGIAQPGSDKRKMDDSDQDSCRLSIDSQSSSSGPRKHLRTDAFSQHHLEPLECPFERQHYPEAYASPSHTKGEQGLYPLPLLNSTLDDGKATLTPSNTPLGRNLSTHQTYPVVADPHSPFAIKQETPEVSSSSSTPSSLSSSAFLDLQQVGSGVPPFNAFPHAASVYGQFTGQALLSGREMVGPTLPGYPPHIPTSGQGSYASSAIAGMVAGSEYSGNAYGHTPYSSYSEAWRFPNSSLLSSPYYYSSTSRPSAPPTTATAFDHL
- Test Details: inhibitors of PAX8-driven TPO luciferase reporter, dose response, RMG-I cells, cherry-pick (AID 687027);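 note: luciferase reporter driven by Pax8 target thyroperoxidase promoter measured by SteadyGlo luminescence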
- Assay type: functional, cell-based
The source made the active and inactive calls.
Experimental Endpoint: AC50

INSERT INTO measurements (compound, tested_system, result) VALUES
  ('COC(=O)C1=C(C)N(Cc2ccc(C(F)(F)F)cc2)C(NCc2ccccc2)=NC1c1cccc(F)c1 (stereo not drawn)', 'Paired box protein Pax-8 (Homo sapiens, UniProt Q06710)', '26.8 µM (active)'),
  ('COc1ccccc1S(=O)(=O)N1CC[C@H]2[C@@H](CO)N(C)c3ccc(-c4ccc(C#N)cc4)cc3[C@H]21', 'Paired box protein Pax-8 (Homo sapiens, UniProt Q06710)', '38.1 µM (active)'),
  ('C[C@@H]1CN([C@@H](C)CO)C(=O)c2c(c3ccccc3n2C)-c2ccccc2CO[C@H]1CN(C)C(=O)Nc1ccc2c(c1)OCO2', 'Paired box protein Pax-8 (Homo sapiens, UniProt Q06710)', '5.68 µM (active)');

###

- Tested System: Apoptotic protease-activating factor 1 (Homo sapiens)
- Sequence (O14727 whole entry): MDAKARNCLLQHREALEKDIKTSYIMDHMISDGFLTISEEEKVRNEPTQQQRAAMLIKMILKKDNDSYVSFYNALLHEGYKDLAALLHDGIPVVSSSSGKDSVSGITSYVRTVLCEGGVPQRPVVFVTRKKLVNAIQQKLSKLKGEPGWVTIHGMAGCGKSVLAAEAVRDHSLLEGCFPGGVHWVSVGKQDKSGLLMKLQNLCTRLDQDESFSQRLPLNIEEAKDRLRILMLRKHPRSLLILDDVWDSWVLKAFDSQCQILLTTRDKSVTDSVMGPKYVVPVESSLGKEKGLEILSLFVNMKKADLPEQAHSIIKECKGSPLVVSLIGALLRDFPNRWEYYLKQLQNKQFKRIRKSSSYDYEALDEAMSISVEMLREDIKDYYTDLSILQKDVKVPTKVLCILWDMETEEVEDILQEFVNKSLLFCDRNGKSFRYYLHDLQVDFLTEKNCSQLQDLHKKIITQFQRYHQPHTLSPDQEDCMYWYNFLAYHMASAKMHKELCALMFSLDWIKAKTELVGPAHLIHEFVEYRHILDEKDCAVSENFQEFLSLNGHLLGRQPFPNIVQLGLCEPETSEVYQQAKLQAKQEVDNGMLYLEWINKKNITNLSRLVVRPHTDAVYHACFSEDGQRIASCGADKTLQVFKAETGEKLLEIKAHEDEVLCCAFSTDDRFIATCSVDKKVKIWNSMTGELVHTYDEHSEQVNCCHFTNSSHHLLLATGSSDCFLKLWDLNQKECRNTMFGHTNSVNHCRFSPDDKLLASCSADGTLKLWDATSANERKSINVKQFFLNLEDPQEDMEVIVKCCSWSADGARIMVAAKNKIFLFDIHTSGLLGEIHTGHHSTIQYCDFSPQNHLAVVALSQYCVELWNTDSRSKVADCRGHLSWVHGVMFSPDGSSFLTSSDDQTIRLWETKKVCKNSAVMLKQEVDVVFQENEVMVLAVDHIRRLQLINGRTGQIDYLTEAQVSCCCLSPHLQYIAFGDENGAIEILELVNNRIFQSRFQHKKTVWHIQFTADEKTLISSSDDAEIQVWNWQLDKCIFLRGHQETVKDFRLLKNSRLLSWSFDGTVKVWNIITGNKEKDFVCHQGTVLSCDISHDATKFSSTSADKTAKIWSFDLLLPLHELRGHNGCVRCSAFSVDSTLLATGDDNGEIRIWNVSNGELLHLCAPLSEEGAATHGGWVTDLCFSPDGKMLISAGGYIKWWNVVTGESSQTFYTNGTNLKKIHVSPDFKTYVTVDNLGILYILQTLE
- Format: functional
Active and inactive are the calls of the source.
Experimental Endpoint: IC50

INSERT INTO results (smiles_input, tested_system, result) VALUES
  ('Clc1ccc(C2=CSC3=Nc4cccc5cccc(c45)N23)cc1', 'Apoptotic protease-activating factor 1 (Homo sapiens)', '17.9 µM (active)'),
  ('O=C1NNC(c2ccccc2)=N/C1=C\c1ccc(Cl)cc1', 'Apoptotic protease-activating factor 1 (Homo sapiens)', '22.9 µM (active)'),
  ('NC1=NC[C@H](CC2CCCCC2)N1CCc1cc(C(F)(F)F)cc(C(F)(F)F)c1', 'Apoptotic protease-activating factor 1 (Homo sapiens)', '74.7 µM (active)'),
  ('O=S(=O)(c1ccc(Br)cc1)N1CCN(c2ccc3nnc(-c4ccccc4)n3n2)CC1', 'Apoptotic protease-activating factor 1 (Homo sapiens)', '8.5 µM (active)');

###

Form: system (UniProtKB P04406), quantity (IC50), values below.
Sequence (P04406 whole entry): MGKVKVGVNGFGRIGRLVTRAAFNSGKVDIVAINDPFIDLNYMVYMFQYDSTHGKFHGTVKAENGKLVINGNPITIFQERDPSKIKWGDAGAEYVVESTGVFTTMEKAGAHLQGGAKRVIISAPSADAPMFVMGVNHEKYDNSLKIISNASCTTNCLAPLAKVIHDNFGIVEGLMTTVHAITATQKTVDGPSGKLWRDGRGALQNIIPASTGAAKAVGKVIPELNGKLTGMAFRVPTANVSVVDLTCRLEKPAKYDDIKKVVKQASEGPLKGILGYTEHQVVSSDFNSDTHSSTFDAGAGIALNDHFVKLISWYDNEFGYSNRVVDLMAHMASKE
Experimental Endpoint: IC50

INSERT INTO results (smiles_input, result) VALUES
  ('CC(=O)Nc1nnc(S(C)(=O)=O)[nH]1', '> 100 µM (not active)'),
  ('O=C(c1cc(-c2ccc(Cl)cc2Cl)n[nH]1)N(CCO)CCO', '> 10 µM (inconclusive)'),
  ('NCCN1CCN(C2=C(Cl)C(=O)N(c3ccc(Cl)c(Cl)c3)C2=O)CC1', '> 100 µM (not active)'),
  ('O=C1c2ccccc2C(=O)N1c1nnc(Cc2ccc(F)cc2)[nH]1', '> 100 µM (not active)'),
  ('O=S(=O)(Nc1cnc2ccccc2c1)c1ccccc1', '> 100 µM (not active)'),
  ('O=C1C(Cl)=C(N2CCN(c3ccccc3F)CC2)C(=O)N1c1ccc(Cl)c(Cl)c1', '> 100 µM (not active)');

###

Form: system (Cytochrome P450 1A2 (Homo sapiens)), quantity (AC50), values below.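 Note: PubChem cytochrome P450 panel assay, CYP1A2 panel member.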
Experimental Endpoint: AC50

INSERT INTO results (molecule, result) VALUES
  ('CCc1nc(N)nc(N)c1-c1ccc(Cl)cc1', '10 µM (inconclusive)'),
  ('Cc1noc(C)c1C(=O)N1CCC2(CCN(C(=O)NC(C)C)CC2)CC1', '5.01 µM (inconclusive)'),
  ('O=C(CSc1nc2ccccc2c(=O)n1Cc1ccccc1)NCc1ccco1', '1.41 µM (inconclusive)'),
  ('COC[C@H]1OC(=O)c2coc3c2[C@@]1(C)C1=C(C3=O)[C@H]2CCC(=O)[C@@]2(C)C[C@H]1OC(C)=O', '31.6 µM (inconclusive)'),
  ('CC(NC(=O)c1ccc(N2CCCC2=O)cc1)c1ccccc1 (stereo not given)', '39.8 µM (inconclusive)'),
  ('O=C(CO)N/N=C/c1ccccc1F', '25.1 µM (inconclusive)'),
  ('Cc1nc2cnc(Oc3ccccc3)nc2n(CCc2ccccc2)c1=O', '3.16 µM (inconclusive)'),
  ('Cc1nc(-c2cccc(NC(=O)c3cc4cc(Br)ccc4oc3=O)c2)cs1', '8.91 µM (inconclusive)'),
  ('Cn1c(=O)c(-c2cc(F)cc(F)c2)nc2cnc(N3CCOCC3)nc21', '5.01 µM (inconclusive)'),
  ('O=C(NCc1ccccc1)C12CN(Cc3ccccc3)CC1C(c1cccc([N+](=O)[O-])c1)=NO2 (stereo not given)', '15.8 µM (inconclusive)'),
  ('Cc1cc(C)cc(-n2nnnc2SCC(=O)Nc2nc(-c3ccc(Cl)cc3)cs2)c1', '7.08 µM (inconclusive)'),
  ('Cc1ccc(C2=Nc3ccccc3S[C@@H](c3cccc([N+](=O)[O-])c3)C2)cc1', '2 µM (inconclusive)'),
  ('c1ccc(C2CC2)c(OCC2=NCCN2)c1', '15.8 µM (inconclusive)'),
  ('COC(=O)[C@@]1(Cc2ccccc2)[C@H]2c3cc(C(=O)N4CCCC4)n(Cc4ccc(C)o4)c3C[C@H]2CN1C(=O)c1ccccc1', '12.6 µM (inconclusive)'),
  ('CCOC(=O)c1ccccc1OCc1cc(/C=N/n2cnnc2)ccc1OC', '1.26 µM (inconclusive)'),
  ('C=CCSc1nnc2c(n1)OC(c1c(C)[nH]n(-c3ccccc3)c1=O)Nc1ccccc1-2 (stereo not given)', '15.8 µM (inconclusive)'),
  ('O=C(Nc1ccccc1)N1CCCC2(CCN(C(=O)Oc3ccccc3)CC2)C1', '25.1 µM (inconclusive)'),
  ('Cc1cc(O)c(C(C)C)cc1CN1CCCCC1', '1 µM (inconclusive)'),
  ('O=C(OCn1nnc2ccccc2c1=O)c1cccnc1', '17.8 µM (inconclusive)'),
  ('CC1(O)c2ccccc2C(=O)N1CCc1ccccc1F (stereo not given)', '20 µM (inconclusive)');

###

Some molecules, each annotated with its measured IC50.
- Test Details: cells
- Type: functional
Calls of active or inactive are those of the source.
Experimental Endpoint: IC50

INSERT INTO assay_data (smiles_input, experimental_endpoint, result) VALUES
  ('CC(=O)Nc1ccc(OC(=O)c2ccc(Br)c([N+](=O)[O-])c2)cc1', 'IC50', '10.1 µM (active)'),
  ('COc1ccc(/C=C2\Sc3ccc(C(=O)NCCN4CCCCCC4)cc3N(C)C2=O)cc1', 'IC50', '19 µM (active)'),
  ('Cc1cc(N/N=C/c2ccccc2[N+](=O)[O-])nc(-n2nc(C)cc2C)n1', 'IC50', '0.6 µM (active)'),
  ('O=C1Nc2ccc(Br)cc2/C1=C/C(=O)c1ccc2c(c1)OCO2', 'IC50', '15.2 µM (active)'),
  ('CN(C)CCCNc1nc2sc3c(c2c(=O)n1CCc1ccccc1)CCCCC3', 'IC50', '23.3 µM (active)');
